The reported measurements were obtained from patent US9040707B2.

target: human mGluR5a receptor (Homo sapiens); construct: host or cells: HEK293A (monoclones H10H and H12H); experiment: Functional Assay 2: Ca2+ mobilization, HEK cells with human mGluR5a receptor (H10H cell line); type: cell-based; conditions: HEK293; H10H cell line; maximum average response at a single concentration, relative to glutamate ECMax
Sequence (P41594 21-1180 isoform P41594-2 limits assumed): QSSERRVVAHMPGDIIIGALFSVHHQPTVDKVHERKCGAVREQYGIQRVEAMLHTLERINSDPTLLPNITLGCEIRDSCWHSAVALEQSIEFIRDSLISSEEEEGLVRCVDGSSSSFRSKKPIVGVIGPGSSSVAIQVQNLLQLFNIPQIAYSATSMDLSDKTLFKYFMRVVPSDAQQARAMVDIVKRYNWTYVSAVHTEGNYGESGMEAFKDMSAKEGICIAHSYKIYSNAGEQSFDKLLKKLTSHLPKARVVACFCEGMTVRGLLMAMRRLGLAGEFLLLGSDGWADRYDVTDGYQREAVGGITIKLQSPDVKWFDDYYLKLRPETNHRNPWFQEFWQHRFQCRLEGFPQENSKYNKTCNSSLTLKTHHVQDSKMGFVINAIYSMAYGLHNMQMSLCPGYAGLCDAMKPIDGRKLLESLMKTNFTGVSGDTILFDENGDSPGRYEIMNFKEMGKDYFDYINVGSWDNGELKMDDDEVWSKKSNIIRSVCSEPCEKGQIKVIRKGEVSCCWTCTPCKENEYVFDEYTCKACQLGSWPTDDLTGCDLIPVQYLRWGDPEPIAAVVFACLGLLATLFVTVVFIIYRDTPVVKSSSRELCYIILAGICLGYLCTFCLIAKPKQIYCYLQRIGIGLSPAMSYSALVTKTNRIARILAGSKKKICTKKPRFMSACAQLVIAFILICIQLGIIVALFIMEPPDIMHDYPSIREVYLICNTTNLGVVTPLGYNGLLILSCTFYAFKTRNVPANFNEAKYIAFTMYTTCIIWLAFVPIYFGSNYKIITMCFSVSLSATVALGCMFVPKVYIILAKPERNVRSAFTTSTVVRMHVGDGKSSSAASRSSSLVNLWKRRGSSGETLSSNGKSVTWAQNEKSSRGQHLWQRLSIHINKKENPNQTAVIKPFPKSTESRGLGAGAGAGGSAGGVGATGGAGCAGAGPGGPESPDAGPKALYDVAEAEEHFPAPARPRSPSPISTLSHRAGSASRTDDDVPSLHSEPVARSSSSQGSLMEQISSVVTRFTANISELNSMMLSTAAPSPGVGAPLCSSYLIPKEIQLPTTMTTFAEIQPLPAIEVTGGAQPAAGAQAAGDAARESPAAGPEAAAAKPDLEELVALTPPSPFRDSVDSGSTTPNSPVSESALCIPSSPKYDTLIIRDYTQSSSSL
recorded_endpoint: Emax (%)

# compound, measurement_unit, Emax
rows = [
    ("O=C1c2sc(COc3ccccc3F)nc2CCN1c1ccc(F)cc1 [Compound 31]", "%", 71),
    ("O=C1c2sc(COc3ccc(F)cc3)nc2CCN1C1CC1 [Compound 62]", "%", 51),
    ("O=C1c2sc(COc3ccccc3F)nc2CCN1c1ccc(F)cc1F [Compound 59]", "%", 76),
    ("O=C1c2sc(COc3ccccc3)nc2CCN1c1cncc(F)c1 [Compound 57]", "%", 62),
    ("O=C1c2sc(COc3cccc(F)c3)nc2CCN1c1ccc(F)cn1 [Compound 54]", "%", 79),
    ("O=C1c2sc(COc3ccc(F)cc3)nc2CCN1c1ccc(F)cc1F [Compound 32]", "%", 81),
    ("O=C1c2sc(COc3ccccc3F)nc2CCN1c1ccc(F)cn1 [Compound 55]", "%", 63),
    ("Cc1cccnc1N1CCc2nc(COc3ccccc3)sc2C1=O [Compound 52]", "%", 82),
    ("O=C1c2sc(COc3ccccc3F)nc2CCN1CC1CC1 [Compound 42]", "%", 67),
    ("O=C1c2sc(COc3ccc(F)cc3)nc2CCN1CC1CC1 [Compound 43]", "%", 59),
]
